meta.source: patent US5053392A

test system: Human Platelets; test: Inhibition of fibrinogen-mediated platelet aggregation; format: cell-based; details: at 100 μM
Non-standard residues stand in square brackets, D forms with d. Residues, ends and D or L forms follow the SMILES beside them. ξ: configuration not given here. Aze = O=C(O)[C@@H]1CCN1; ξPip = O=C(O)C1CCCCN1; Ava = NCCCCC(=O)O
property-measured: Inhibition of Fibrinogen Mediated Platelet Aggregation % inhibition at 100 μM (%)

>  <molecule>
CC(C)[C@H](NC(=O)[C@H](CC(=O)O)NC(=O)[C@@H]1CCN1C(=O)CCCCN)C(=O)O (H-[Ava][Aze]DV-OH)

>  <unit-of-measurement>
%

>  <observed>
74

$$$$
>  <molecule>
CC(C)[C@H](NC(=O)[C@H](CC(=O)O)NC(=O)C1CCCCN1C(=O)[C@@H](N)CCCNC(=N)N)C(=O)O (stereo partly shown) (H-R[ξPip]DV-OH)

>  <unit-of-measurement>
%

>  <observed>
73

$$$$
>  <molecule>
CC(C)[C@H](NC(=O)[C@H](CC(=O)O)NC(=O)[C@@H]1CCCN1C(=O)[C@@H](N)CCCNC(=N)N)C(=O)O [L-arginyl-L-prolyl-L-aspartyl-L-valine, L-Arginyl-L-prolyl-L-aspartyl-L-valine] (H-RPDV-OH)

>  <unit-of-measurement>
%

>  <observed>
25

$$$$
>  <molecule>
CC(C)[C@H](NC(=O)[C@H](CC(=O)O)NC(=O)[C@@H]1CCN1C(=O)[C@@H](N)CCCNC(=N)N)C(=O)O (H-R[Aze]DV-OH)

>  <unit-of-measurement>
%

>  <observed>
91

$$$$
